Entries and their max response
system: HEK293; assay: Cytotoxic Profiling of Annotated Libraries Using Quantitative High-Throughput Screening (AID 1296008); details: Five cell lines viability, CellTiter-Glo ATP luminescence, 48-72 h; stronger effect = lower value; also: % is scaled to controls: 0 for no effect and ±100 for the full control effect; nearly all actives have a fitted effect of over 60% in size
Records with an inconclusive call do not appear.
Answer with a number only, understood to be in %.

Past entries and their recorded results:
COMPOUND | max response [%]
c1cc(OCCCN2CCCCC2)ccc1CN1CCCCC1 | -18.4
Cc1cc(C(=O)N2Cc3cnn(C)c3Nc3ccccc32)ccc1CNC(=O)N1CCC[C@H]1C(=S)N1CCCN(C)CC1 | -0.106

Problem: Provide measured max response on HEK293 for CC1(C)CC[C@]2(C(=O)O[C@@H]3O[C@H](CO)[C@@H](O)[C@H](O)[C@H]3O)CC[C@]3(C)C(=CCC4[C@@]5(C)C[C@@H](O)[C@H](O)[C@](C)(C=O)C5CC[C@]43C)[C@@H]2[C@@H]1O (stereo partly drawn) please.
Result: -5.81

Problem: Enter recorded max response with HEK293 for `CC(=O)O[C@@H](CO[C@@H]1O[C@H](CO)[C@H](O)[C@H](O)[C@H]1O)[C@]1(C)C=C2CC[C@@H]3C(C)(C)[C@@H](O)CC[C@@]3(C)[C@@H]2CC1` here.
Result: -1.31

Problem: Find max response for CC(C)=CCC[C@](C)(O[C@@H]1O[C@H](CO)[C@@H](O)[C@H](O)[C@H]1O)[C@H]1CC[C@]2(C)[C@@H]1[C@H](O)CC1[C@@]3(C)CC[C@H](O)C(C)(C)C3[C@@H](O[C@@H]3O[C@H](CO)[C@@H](O)[C@H](O)[C@H]3O)C[C@]12C (stereo partly drawn) on HEK293 and write it down.
Result: -3.92

Problem: Enter recorded max response with HEK293 for C=CC1(C)C=C2C(=O)OC(=O)C3=C(CCCC3(C)C)C2(O)CC1 (stereo not drawn) here.
Result: -14.3

Problem: Tell me its max response on HEK293: CC(C)C1=CC2C(CC[C@]2(C)O)[C@](C)(O)CC1 (stereo partly drawn)
Result: -1.9

Problem: State recorded max response with HEK293, entry CC1CC[C@]2(C(=O)O)CC[C@]3(C(=O)O)C(=CCC4[C@@]5(C)CC[C@H](O[C@@H]6O[C@H](CO)[C@@H](O)[C@H](O)[C@H]6O)C(C)(C)C5CC[C@]43C)C2C1C (stereo partly drawn) , no comment.
Result: -4.94

Problem: State max response on HEK293. Entry: `CC(C)CN(C[C@@H](O)[C@H](Cc1ccccc1)NC(=O)O[C@@H]1CO[C@H]2OCC[C@H]21)S(=O)(=O)c1ccc(N)cc1`
Result: -6.82

Problem: Please respond with reported max response (system HEK293) for COc1cc(O)c2c(c1)C1=CC(O)C(O)CC1(C)OC2=O (stereo not drawn) .
Result: -5.55

Problem: For HEK293, give max response of the listed compound: `CO[C@H]1/C=C\O[C@@]2(C)Oc3c(C)c(O)c4c(O)c(c5c(nc6cc(C)ccn65)c4c3C2=O)NC(=O)/C(C)=C\C=C/[C@H](C)[C@H](O)[C@@H](C)[C@@H](O)[C@@H](C)[C@H](OC(C)=O)[C@@H]1C`
Result: -17.1

Problem: # return max response of `C[C@H](NC(=O)CCc1nc2ccccc2c(=O)[nH]1)c1ccccc1` (system: HEK293)
Result: -7.11

Problem: State measured max response of the compound `C/C=C1\[C@H](O[C@@H]2O[C@H](CO)[C@@H](O)[C@H](O)[C@H]2O)OC=C(C(=O)OC)[C@H]1CC(=O)OC[C@H]1O[C@@H](OCCc2ccc(O)cc2)[C@H](O)[C@@H](O)[C@@H]1O` with HEK293.
Result: 0.429

* * *

Assay: P-glycoprotein substrates identified in KB-8-5-11 adenocarcinoma cell line, qHTS therapeutic library screen (AID 1346987); also: nearly all actives have a fitted effect of over 65% in size
Conditions: KB-8-5-11 (P-gp overexpressing) viability, CellTiter-Glo, 72 h; series mostly up to 44.5 µM
Protocol: The ATP-binding cassette transporters P-glycoprotein (P-gp) is known to limit brain penetration of many chemotherapy drugs. […] All cell lines were plated into 1536-well plates at 500 cells/well in 5 uL media. […] CellTiter-Glo reagent (Promega) was dispensed into the wells, incubated for 5 min and luminescence was read on a ViewLux instrument (Perkin-Elmer). […]
Results filed as inconclusive are left out. The source made the active and inactive calls. Calls come from the whole dose curve; as a rule, active = well fitted inhibition curve with a large enough effect; inconclusive = small, poorly fitted or top-dose-only effect; inactive = flat fitted curve, though single readings scatter.
Hi! Could you answer with just one of these? active, inactive

COMPOUND | DISCRETE LABEL
CC(O)CCC1C(CO[C@@H]2O[C@H](CO)[C@@H](O)[C@H](O)[C@H]2O)CC(O)CC1(C)C (some centres not stated) | inactive
O=C(c1ccccc1)c1ccc2nc(NC(=O)c3csc(C4CCN(c5ncnc6ccsc56)CC4)n3)[nH]c2c1 | active
CC1CCC2(C=O)C(CO)=CCCC2C1(C)CC(=O)O (configuration not stated) | inactive
CC(=O)O[C@@H]1[C@@H](O)[C@H](C)O[C@@H](O[C@H]2[C@@H]3C=CO[C@@H](O[C@@H]4O[C@H](CO)[C@@H](O)[C@H](O)[C@H]4O)[C@@H]3[C@@]3(CO)O[C@@H]23)[C@@H]1OC(=O)/C=C/c1ccccc1 | inactive
CC(C)=CCC[C@](C)(O[C@@H]1O[C@H](CO)[C@@H](O)[C@H](O)[C@H]1O)[C@H]1CC[C@]2(C)[C@@H]1[C@H](O)CC1[C@@]3(C)CC[C@H](O)C(C)(C)C3[C@@H](O[C@@H]3O[C@H](CO)[C@@H](O)[C@H](O)[C@H]3O)C[C@]12C (some centres not stated) | inactive
CC(C)c1cc(CNc2nc(Nc3cc(C4CC4)[nH]n3)cc(N3CCN(C)CC3)n2)on1 | active

We now examine a further compound.
Problem: // param item: `O=C(/C=C/c1ccc(O)cc1)N[C@@H](Cc1ccc(O)cc1)C(=O)O` ; yields the recorded call
Result: inactive

* * *

Parameter activity: see the listing below.
molecular target: Phenylethanolamine N-methyltransferase (Homo sapiens) (UniProt P11086); experiment: Confirmatory Screen for Target Class Profiling of Small Molecule Inhibitors of Methyltransferases (AID 1745852); conditions: MTase-Glo luminescence, SAH detection, recombinant enzyme; measured here: PNMT max response; stronger effect = lower value
Sequence (P11086 whole entry, looked up): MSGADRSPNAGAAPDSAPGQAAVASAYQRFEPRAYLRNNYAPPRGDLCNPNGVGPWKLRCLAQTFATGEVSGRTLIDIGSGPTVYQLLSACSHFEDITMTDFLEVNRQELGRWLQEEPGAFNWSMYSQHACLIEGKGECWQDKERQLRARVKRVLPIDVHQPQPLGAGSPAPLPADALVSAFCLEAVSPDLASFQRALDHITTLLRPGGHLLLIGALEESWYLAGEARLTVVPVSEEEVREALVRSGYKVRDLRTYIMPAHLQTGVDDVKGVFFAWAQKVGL
Enter your answer as a number in %; do not include the unit.

Take a look at these entries with their results.
COMPOUND | ENDPOINT RESULT
CC1=C(CCC(C)O[C@@H]2O[C@H](CO)[C@@H](O)[C@H](O)[C@H]2O)C(C)(C)CCC1=O (some centres undefined) | -0.201
CC(C)c1cc(CNc2nc(Nc3cc(C4CC4)[nH]n3)cc(N3CCN(C)CC3)n2)on1 | -6.69

Problem: Recall and state the measured activity for `O=C(c1ccccc1)c1ccc2nc(NC(=O)c3csc(C4CCN(c5ncnc6ccsc56)CC4)n3)[nH]c2c1` .
Result: -13.7

Problem: Write down activity measured for item `Cc1c[nH]c2nccc(Oc3c(F)cc(Nc4cc(Cl)nc(N)n4)cc3F)c12`
Result: -3.98

Problem: Provide measured activity value, entry: CC1CCC2(CO)C(C(=O)O)=CCCC2C1(C)CCc1ccoc1 (centres undefined)
Result: 1.68

Problem: Determine its reported activity: `O=C(O)/C=C/c1ccc(-c2ccc(O)c(C34CC5CC(CC(C5)C3)C4)c2)cc1`
Result: -0.0074

Problem: Fill in activity for record CC(O)(CC(=O)O)CC(=O)OCc1ccc(O[C@@H]2O[C@H](CO)[C@@H](O)[C@H](O)[C@H]2O)cc1 (some centres undefined)
Result: 1.08

Problem: For the compound `c1cc(OCCCN2CCCCC2)ccc1CN1CCCCC1` , report activity.
Result: -0.509

Problem: Recall and state the measured activity for `CN(C)C/C=C/C(=O)Nc1cccc(C(=O)Nc2ccc(Nc3nccc(-c4cccnc4)n3)cc2)c1` .
Result: 1.39

* * *

biological target: Phospholipid hydroperoxide glutathione peroxidase GPX4 (Homo sapiens); test: Primary qHTS Assay for Inhibitors of Recombinant Selenoprotein Glutathione Peroxidase 4 (GPX4) (AID 1845192); conditions: recombinant GPX4, GR-coupled NADPH fluorescence, 15 min; series mostly up to 50 µM; also: % is scaled to controls: 0 for no effect and ±100 for the full control effect; nearly all actives have a fitted effect of over 65% in size
Records with an inconclusive call do not appear. Activity calls are given as the source filed them. The call rests on the fitted dose curve; in most records, active means well fitted inhibition curve with a large enough effect; inconclusive means small, poorly fitted or top-dose-only effect; inactive means flat fitted curve, though single readings scatter.
PROPERTY LABEL: activity change, negative = inhibition

COMPOUND | ENDPOINT RESULT
O=C(O)/C=C/c1cc2c(cc1O[C@@H]1O[C@H](CO)[C@@H](O)[C@H](O)[C@H]1O)OCO2 | inactive
C[C@@H]1C[C@@H]([C@@H](O)C(C)(C)O)O[C@H]2C[C@@]3(C)C(=C12)C[C@H](O)[C@H]1[C@@]2(C)CCC(=O)C(C)(C)C2CC[C@@]13C (stereo not given in full) | inactive
C=C1CCC2C(C)(C)C(O)CCC2(C)C1CCC(C)CCO (stereo not given) | inactive
CC(=O)OC[C@@]12C(=O)C[C@@H](C)[C@]3(C[C@@H](c4ccoc4)O[C@H]3OC(C)=O)[C@H]1CCC[C@]21CO1 | inactive
O=C1OCc2cc3cccc(O[C@@H]4O[C@H](CO)[C@@H](O)[C@H](O)[C@H]4O)c3c(O)c21 | inactive
COc1cc(C(=O)OC[C@@]2(O)CO[C@@H](O[C@H]3[C@H](Oc4ccc(C(=O)O)cc4OC)O[C@H](CO)[C@@H](O)[C@@H]3O)[C@@H]2O)ccc1O | inactive

Problem: Provide only the value of recorded activity change, negative = inhibition for COC(=O)C1=CO[C@@H](O[C@@H]2O[C@H](CO)[C@@H](O)[C@H](O)[C@H]2O)[C@H]2[C@@H]1CC(OC)O[C@@H]2C (stereo not given in full)
Result: inactive

Problem: Determine from records and report activity change, negative = inhibition for `C=C(F)c1sc(CNCCCNc2cc(=O)c3ccccc3[nH]2)c(C)c1Br`
Result: inactive
